target: Neuraminidase (Influenza A virus (A/Puerto Rico/8/1934(H1N1)), UniProt P03468, H274Y); assay: Inhibition of influenza A virus H1N1 neuraminidase H274Y mutant
measurement-name: IC50

C[C@@H]1C[C@H](C)C(=O)[C@@H]2O[C@@H]2[C@@H]2[C@@H](O)[C@@H]3OC4=C(C(=O)O[C@@]42C[C@H]3C)C1=O yielded IC50 of > 44.2 µM
